Read-out: urokinase plasminogen activator (uPA), PLAU (gene 5328)
Assay: BSK_BE3C_uPA: BioMAP Diversity Plus: BE3C Assay for urokinase plasminogen activator (uPA) Biomarker Activity (AID 2283038);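 on outcome: uPA protein level quantified by ELISA in cell cultures; uPA read one day after compound addition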
Conditions: primary human bronchial epithelial cells; actives raise or lower the signal
Activity calls are given as the source filed them. How the source made its calls: active means hit-call score of the fitted dose curve at least 0.9, where 1 is the maximum; inactive means score below 0.9.
Please answer using one outcome listed in 1 (yes) (active), 0 (no) (inactive)

Prompt: Name the outcome recorded for C=C(C)C(=O)OCCC(F)(F)C(F)(F)C(F)(F)C(F)(F)C(F)(F)C(F)(F)F in the assay.
Response: 0 (no)

Prompt: Name the outcome recorded for C[C@@H]1C[C@H]2[C@@H]3CCC4=CC(=O)C=C[C@]4(C)[C@@]3(F)[C@@H](O)C[C@]2(C)[C@@]1(O)C(=O)COP(=O)(O)O in the assay.
Response: 0 (no)

Okay, next one:
Prompt: Name the outcome recorded for NC(=O)N1C(=O)C(C(=O)c2cc(Cl)cs2)c2cc(F)c(Cl)cc21 (stereo not drawn) in the assay.
Response: 1 (yes)

---

Read-out: catalase (CAT), CAT (gene 847)
Assay: LTEA_HepaRG_CAT: Life Technologies and Expression Analysis (LTEA) Assay for catalase (CAT) using HepaRG (AID 2283452)
Settings: mRNA level, 48 h; actives raise or lower the signal
The source made the active and inactive calls. How the source made its calls: active means hit-call score of the fitted dose curve at least 0.9, where 1 is the maximum; inactive means score below 0.9.
Please answer using one outcome listed in T = active, F = inactive

Prompt: Name the outcome recorded for CC(C)(C)c1ccc(O)c(C(C)(C)C)c1 in the assay.
Response: F

---

Target: Hypoxia-inducible factor 1-alpha (Homo sapiens) (UniProt Q16665)
Sequence (Q16665 whole entry, looked up): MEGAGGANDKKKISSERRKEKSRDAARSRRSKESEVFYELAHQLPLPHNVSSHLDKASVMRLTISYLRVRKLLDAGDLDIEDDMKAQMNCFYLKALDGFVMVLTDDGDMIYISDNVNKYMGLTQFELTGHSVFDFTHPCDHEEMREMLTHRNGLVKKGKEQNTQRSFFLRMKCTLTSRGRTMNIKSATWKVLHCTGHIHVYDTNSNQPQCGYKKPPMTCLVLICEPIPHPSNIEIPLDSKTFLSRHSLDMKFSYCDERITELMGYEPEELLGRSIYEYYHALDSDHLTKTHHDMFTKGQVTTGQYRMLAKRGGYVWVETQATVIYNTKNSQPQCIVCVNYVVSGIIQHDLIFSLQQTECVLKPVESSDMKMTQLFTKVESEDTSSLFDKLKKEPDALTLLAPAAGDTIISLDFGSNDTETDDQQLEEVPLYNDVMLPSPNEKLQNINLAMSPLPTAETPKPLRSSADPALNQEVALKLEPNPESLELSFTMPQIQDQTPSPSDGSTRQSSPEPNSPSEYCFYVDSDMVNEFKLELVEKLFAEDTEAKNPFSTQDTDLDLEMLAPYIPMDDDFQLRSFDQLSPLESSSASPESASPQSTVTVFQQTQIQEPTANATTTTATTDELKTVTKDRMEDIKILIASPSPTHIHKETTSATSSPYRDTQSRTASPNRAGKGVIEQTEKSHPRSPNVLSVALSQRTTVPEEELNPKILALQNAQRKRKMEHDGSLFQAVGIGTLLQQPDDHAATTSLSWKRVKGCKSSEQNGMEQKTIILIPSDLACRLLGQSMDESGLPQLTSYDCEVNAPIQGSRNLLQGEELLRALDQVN
Experiment: ATG_HIF1a_CIS: Attagene CIS-FACTORIAL HepG2 Assay for human Hypoxia Inducible Factor 1 (HIF1A) (AID 2282951)
Conditions: HepG2 Attagene cis-factorial HIF1a reporter transcription; actives raise or lower the signal
Calls of active or inactive are those of the source. The calls were made as follows: active = hit-call score of the fitted dose curve at least 0.9, where 1 is the maximum; inactive = score below 0.9.
outcomeMeasure: AC50

Answered examples (10):
So for COCC(C)O (stereo unspecified) , the logged AC50 turned out to be inactive

So for CCCCCCCCCCCCN1CCCC1=O , the logged AC50 turned out to be inactive

So for OC1CCCCC1 , the logged AC50 turned out to be inactive

So for CC(=O)CC(C)(C)O , the logged AC50 turned out to be inactive

So for O=C1OC2(c3ccccc31)c1cc(Br)c(O)c(Br)c1Oc1c2cc(Br)c(O)c1Br , the logged AC50 turned out to be inactive

So for CC(C)(C)CC(C)(C)c1ccc(O)c(-n2nc3ccccc3n2)c1 , the logged AC50 turned out to be inactive

So for Cc1cc(C)c(O)c(C)c1 , the logged AC50 turned out to be inactive

So for NC(=O)N1C(=O)C(C(=O)c2cc(Cl)cs2)c2cc(F)c(Cl)cc21 (stereo unspecified) , the logged AC50 turned out to be 6.79 µM (active)

So for O=C(O)Cc1cc(I)c(Oc2cc(I)c(O)c(I)c2)c(I)c1 , the logged AC50 turned out to be inactive

So for CC(C)(C)c1cccc(C(C)(C)C)c1O , the logged AC50 turned out to be 173 µM (active)

Give one value of AC50 per listed compound.
1. CCCCCCCCOC(=O)CCCCCCCCC(=O)OCCCCCCCC
2. FC(F)(I)C(F)(F)C(F)(F)C(F)(F)C(F)(F)C(F)(F)I

Response:
1: inactive; 2: inactive
